System: stomach epithelium cells
assay_procedure: Inhibition of acetylsalicylic acid-induced loss of stomach epithelium cells
Format: in vivo
protocol_conditions: Rattus norvegicus; narcotized male SIV50 rats; acetylsalicylic acid as irritant; 3 times 300 mg/kg test compound orally beforehand; read-out: % reduction of loss of epithelium cells in the stomach
Text: 2. Inhibition of loss of stomach epithelium cells The test compound is orally administered to narcotized male rats of the breed SIV50 prior to the beginning of the test. […] In order to prepare the animals for the determination, the trachea is laid free and a tube introduced therein. […] By means of the introduced vein-catheter, stomach juice is recovered and then is centrifuged and microscopically analyzed. […]
observed_property: inhibition in vivo at 300 mg/kg (%)
Answers are plain numbers, in %.

Field: example entries. Status: answers known.
compound="COc1cc(C(=O)NCC(O)CN(C)c2ccc(C(F)(F)F)cc2)cc(OC)c1OC (centres unmarked)" reported_measurement=47.8
compound="COc1cc(C(=O)NCC(O)CNc2c(C)cc(C)cc2C)cc(OC)c1OC (centres unmarked)" reported_measurement=28.4
compound="COc1cc(C(=O)NCC(O)CN(C)c2ccc(Cl)cc2)cc(OC)c1OC (centres unmarked)" reported_measurement=77
compound="COc1cc(C(=O)NCC(O)CN(C)c2ccc(C)cc2)cc(OC)c1OC (centres unmarked)" reported_measurement=47.8

Attention now turns to another entry.
// returns inhibition in vivo at 300 mg/kg for CCOc1cc(C(=O)NCC(O)CN(C)c2ccc(F)cc2)cc(OCC)c1OCC (centres unmarked) with stomach epithelium cells; value = 63
